# credit: PubChem BioAssay AID1188

Tested on: Fathead minnow (Pimephales promelas) acute toxicity, lethality
EXPERIMENT: DSSTox (EPAFHM) EPA Fathead Minnow Acute Toxicity
EXPERIMENTAL READOUT: Potency

// below: answered molecules
{"MOLECULE": "CCCCCCCCCCCC#N", "Potency": "2.37 µM"}
{"MOLECULE": "C1CCCCC1", "Potency": "53.8 µM"}
{"MOLECULE": "CCOP(=S)(OCC)Oc1ccc(S(C)=O)cc1 (stereo not drawn)", "Potency": "140 µM"}
{"MOLECULE": "OCCCl", "Potency": "667 µM"}
{"MOLECULE": "ClC(Cl)=C(Cl)C(Cl)=C(Cl)Cl", "Potency": "0.345 µM"}
{"MOLECULE": "CC(C)c1ccccc1", "Potency": "52.6 µM"}

Quick check: Potency of `CC1(C)[C@H]2CC[C@]1(C)[C@H](O)C2` ?
410 µM

Now the same for `O=Cc1cc([N+](=O)[O-])ccc1Cl`
20.9 µM

====

Tested on: Fathead minnow (Pimephales promelas) acute toxicity, lethality
EXPERIMENT: DSSTox (EPAFHM) EPA Fathead Minnow Acute Toxicity
The molecules listed here are annotated with their Potency.

{"MOLECULE": "BrCC1CCCCO1 (stereo unspecified)", "SUBJECT OF TEST": "Fathead minnow (Pimephales promelas) acute toxicity, lethality", "Potency": "1150 µM"}
{"MOLECULE": "NC(=O)c1ccccc1O", "SUBJECT OF TEST": "Fathead minnow (Pimephales promelas) acute toxicity, lethality", "Potency": "736 µM"}
{"MOLECULE": "O=P(Oc1ccccc1)(Oc1ccccc1)Oc1ccccc1", "SUBJECT OF TEST": "Fathead minnow (Pimephales promelas) acute toxicity, lethality", "Potency": "2.66 µM"}
{"MOLECULE": "CCCCCC(=O)OCC", "SUBJECT OF TEST": "Fathead minnow (Pimephales promelas) acute toxicity, lethality", "Potency": "61.7 µM"}
{"MOLECULE": "CC1(C)OCC(CO)O1 (stereo unspecified)", "SUBJECT OF TEST": "Fathead minnow (Pimephales promelas) acute toxicity, lethality", "Potency": "126000 µM"}
{"MOLECULE": "C=C(C)C(=O)OCC1CCCO1 (stereo unspecified)", "SUBJECT OF TEST": "Fathead minnow (Pimephales promelas) acute toxicity, lethality", "Potency": "204 µM"}
{"MOLECULE": "C#CC(C)(O)C(C)C (stereo unspecified)", "SUBJECT OF TEST": "Fathead minnow (Pimephales promelas) acute toxicity, lethality", "Potency": "1830 µM"}
{"MOLECULE": "CCC(C)O (stereo unspecified)", "SUBJECT OF TEST": "Fathead minnow (Pimephales promelas) acute toxicity, lethality", "Potency": "49500 µM"}
{"MOLECULE": "Oc1cc(Cl)c(Cl)cc1O", "SUBJECT OF TEST": "Fathead minnow (Pimephales promelas) acute toxicity, lethality", "Potency": "4.97 µM"}
{"MOLECULE": "OCC#CCO", "SUBJECT OF TEST": "Fathead minnow (Pimephales promelas) acute toxicity, lethality", "Potency": "623 µM"}

Quick check: Potency of `OCCN1CCNCC1` ?
49200 µM

Now the same for `c1cc2c3c(cccc3c1)CC2`
11.2 µM

Now the same for CCC(C)N (stereo unspecified)
3760 µM

Now the same for `O=[N+]([O-])c1c(Cl)cc(Cl)c([N+](=O)[O-])c1Cl`
0.818 µM

Now the same for `Oc1c(O)c(Cl)c(Cl)c(Cl)c1Cl`
5.12 µM

Now the same for `BrC(Br)c1ccccc1C(Br)Br`
1.04 µM

Now the same for `Cc1ccc(O)c(C)c1`
136 µM

Now the same for `CCCCCCCC(C)=O`
107 µM

Now the same for `CCCCCCCCCCN`
6.55 µM

Now the same for `OCCOCCO`
709000 µM
